# TARGET OF ASSAY: Alpha-2C adrenergic receptor (Homo sapiens)
# TEST PROTOCOL: modulators of alpha2C/GIRK thallium flux, primary screen, cell-based, HEK293 alpha2C/GIRK1/2 (AID 624);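 further: slope of fluorescence ratio to pre-addition baseline per second over 15 to 24 s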
# CONDITION: thallium flux BTC fluorescence, at 10 µM, actives lie on both sides
EXPERIMENTAL ENDPOINT: slope
Answers are plain numbers.

COMPOUND	MEASURED VALUE
COc1ccc(CNc2nc3nc(C)c(Cl)c(C)n3n2)cc1OC	0.00515
CC(=O)c1cccc(S(=O)(=O)N2CCC(n3nnc4cc(F)ccc43)CC2)c1	0.00694
CCCOc1ccc(N2C(=O)CC(SCCN)C2=O)cc1 (stereo unspecified)	0.00441

For every item in the list below, what is its measured slope?
1. CCOC(=O)N1CCC(NC(=O)Cn2c3c(c(-c4ccccc4Cl)cc2=O)CCC3)CC1
2. O=C(CCC(=O)c1cccs1)NCc1ccccc1
3. CCOc1ccc(Cn2nnc(C(=O)Nc3cc(C)cc(C)c3)c2N)cc1
4. COc1ccc(NC(=O)CN2CCN(S(=O)(=O)c3ccc(Cl)cc3)CC2)cc1
5. CCOC(=O)N1CCC(NC(=O)CN2C(=O)CCSc3ccccc32)CC1
6. COc1cc2c(cc1OC)-c1cc(Nc3ccc4c(c3)OCCO4)nc(=O)n1CC2
7. N#CCCN1CCN(S(=O)(=O)c2ccc(S(=O)(=O)NC3CCCC3)cc2)CC1
8. O=C(C1CCN(c2nnnn2-c2ccccc2)CC1)N1CCN(c2ccccc2)CC1

0.00573
0.0103
0.00695
0.00382
0.00644
0.00445
0.00706
0.00667

---

# TEST PROTOCOL: inhibitors of E-selectin induction by TNFa, primary screen, imaging, HUVEC, immunofluorescence, MLSMR starter and 10KST1 sets (AID 487);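 further: signal is fraction of cell area covered by stained E-selectin grains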
# CONDITION: HUVEC TNFalpha-induced E-selectin immunofluorescence imaging, at 2 µM; stronger effect = higher value
What inhibition was measured for each of the following?
Answers are plain numbers, in %.

MOLECULE	UNITS TEXT	MEASURED VALUE
O=C1c2ccccc2-c2onc3ccc(NCc4ccco4)c1c23	%	-23.9
Cn1c(=O)c2c(nc(NCc3ccco3)n2CCc2ccccc2)n(C)c1=O	%	-74.4
CCCCN(CC)CCCNC(=O)c1cc2c(=O)n(C)c3ccccc3c2n1C	%	-52.5

For every item in the list below, what is its measured inhibition?
1. CC1Cc2nc(SCC(=O)Nc3nccs3)n(C)c(=O)c2S1 (stereo unspecified)
2. O=C(Nc1ccc(N2CCCCC2)cc1)c1ccc(F)cc1
3. CCOc1ccc2nc(NC(NC(=O)CC)(C(=O)OC)C(F)(F)F)sc2c1 (stereo unspecified)
4. c1coc(-c2nnc(NC3=NCCC3)o2)c1
5. COCCCNC(=O)c1c(N)n(-c2cccc(S(N)(=O)=O)c2)c2nc3ccccc3nc12
6. CCOc1cc2[nH]c(=O)n(CCCCC(=O)NCc3ccco3)c(=O)c2cc1OCC
7. CCOC(=O)N1CCN(C(=O)CSc2ncnc3ccccc23)CC1

[-23.5, -134, -214, -80.8, 1.4, -41.6, -10.3]

For every item in the list below, what is its measured inhibition?
1. COC(=O)C(NC(=O)c1ccccc1)(Nc1nccs1)C(F)(F)F (stereo unspecified)
2. COc1ccccc1-c1nc2n(n1)C(c1cccs1)C(C(=O)Nc1cccnc1)=C(C)N2 (stereo unspecified)

[-7.4, 7.4]

For every item in the list below, what is its measured inhibition?
1. Cn1c(=O)c2c(nc(NCCCO)n2C/C=C/c2ccccc2)n(C)c1=O
2. OCCN=C(c1ccccc1)C12CN3CN(CN(C3)C1)C2
3. COc1c(Br)cc2c(C)c(C(=O)O)oc2c1Br
4. Cc1ccc(S(=O)(=O)N(CC(O)CN(C)C)c2ccccc2)cc1 (stereo unspecified)

-45.2
-133
-26.9
-98.3

---

What slope was measured for each of the following?
# TARGET OF ASSAY: Alpha-2C adrenergic receptor (Homo sapiens) (UniProt P18825)
# Sequence (P18825 whole entry, looked up): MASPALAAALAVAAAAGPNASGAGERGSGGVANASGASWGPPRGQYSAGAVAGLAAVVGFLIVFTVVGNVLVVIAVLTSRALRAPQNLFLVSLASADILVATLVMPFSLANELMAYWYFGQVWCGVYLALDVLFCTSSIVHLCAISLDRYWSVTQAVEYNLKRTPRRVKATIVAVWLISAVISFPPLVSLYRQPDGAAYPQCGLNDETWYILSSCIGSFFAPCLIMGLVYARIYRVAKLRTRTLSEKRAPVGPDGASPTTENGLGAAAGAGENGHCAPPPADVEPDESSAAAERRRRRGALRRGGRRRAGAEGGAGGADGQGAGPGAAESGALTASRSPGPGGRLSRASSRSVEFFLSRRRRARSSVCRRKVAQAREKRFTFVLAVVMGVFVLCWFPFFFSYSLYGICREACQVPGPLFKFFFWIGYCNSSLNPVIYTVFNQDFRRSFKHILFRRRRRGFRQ
# TEST PROTOCOL: modulators of alpha2C/GIRK thallium flux, primary screen, cell-based, HEK293 alpha2C/GIRK1/2 (AID 624);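 further: slope of fluorescence ratio to pre-addition baseline per second over 15 to 24 s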
# CONDITION: thallium flux BTC fluorescence, at 10 µM, actives lie on both sides
One number for each entry.

For every item in the list below, what is its measured slope?
1. CCN(Cc1nc2ccccc2c(=O)[nH]1)Cc1cc(=O)oc2cc(C)c(C)cc12
2. CN1CCCC(OC(=O)c2ccc3c(c2)OCCO3)C1 (stereo unspecified)
3. COCCNC(=O)C(c1ccc(O)cc1)N(Cc1ccco1)C(=O)CCC(=O)Nc1nccs1 (stereo unspecified)
4. CN(C)c1ccc(CNn2cnnc2)cc1

1: 0.00456; 2: 0.00576; 3: 0.0061; 4: 0.00382

For every item in the list below, what is its measured slope?
1. O=C(CCc1nc2ccccc2[nH]1)Nc1ccc2c(c1)OCO2
2. COc1cccc(OCc2nc3ccccc3[nH]2)c1
3. COc1ccccc1-c1nnc(NC(=O)c2ccc(S(=O)(=O)N(C)Cc3ccccc3)cc2)o1
4. COc1ccc(-c2cc3n(n2)CCc2nc4ccccc4n2-3)cc1
5. CCOC(=O)C1CCN(c2c(Nc3ccc4c(c3)OCCO4)c(=O)c2=O)CC1
6. CCOC(=O)Cc1c(C)c2c(O)cc(O)cc2oc1=O
7. O=C(CCNS(=O)(=O)c1cccs1)Nc1ccccc1F
8. CCN(CC)c1ccc(NC(=O)CN2CCN(CC(=O)Nc3ccccc3F)CC2)cc1

[0.00426, 0.0079, 0.00777, 0.00599, 0.0056, 0.00591, 0.00565, 0.00308]

For every item in the list below, what is its measured slope?
1. O=C(c1ccco1)N1CCN(CC2CC3C=CC2C3)CC1 (stereo unspecified)
2. O=C(O)c1cc(-c2ccccc2Cl)n[nH]1

[0.00614, 0.00669]

For every item in the list below, what is its measured slope?
1. COc1ccc(NC(=O)C(C)NS(=O)(=O)c2ccccc2)cc1Cl (stereo unspecified)
2. COc1ccc(OC)c(S(=O)(=O)N2CCC(C(=O)NCc3ccccc3OC)CC2)c1

0.00596
0.00487

---

# TARGET OF ASSAY: Voltage-gated potassium channel subunit beta-2 (Rattus norvegicus) (UniProt P62483)
# Sequence (P62483 whole entry, looked up): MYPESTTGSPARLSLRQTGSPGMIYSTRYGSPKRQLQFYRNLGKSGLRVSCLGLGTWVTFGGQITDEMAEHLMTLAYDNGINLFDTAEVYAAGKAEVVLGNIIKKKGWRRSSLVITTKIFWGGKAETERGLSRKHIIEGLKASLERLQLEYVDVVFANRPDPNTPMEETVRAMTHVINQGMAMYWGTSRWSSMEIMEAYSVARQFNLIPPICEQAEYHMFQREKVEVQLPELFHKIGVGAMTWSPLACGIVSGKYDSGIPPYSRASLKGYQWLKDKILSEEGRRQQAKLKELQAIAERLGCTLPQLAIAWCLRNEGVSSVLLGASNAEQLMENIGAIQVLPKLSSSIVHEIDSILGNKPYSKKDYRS
# TEST PROTOCOL: KvBeta positive modulators, primary screen, biochemical, NADPH fluorescence (AID 623);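 further: fluorescence intensity change per second fitted from 20 to 320 s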
# CONDITION: Recombinant KvBeta, NADPH fluorescence decrease slope, 10 min; at 10 µM; stronger effect = lower value
EXPERIMENTAL ENDPOINT: NADPH fluorescence slope
Answers are plain numbers.

MOLECULE	MEASURED VALUE
CC1CCCCC1NC(=O)CN1CCN(Cc2ccccc2Cl)C1=O (centres undefined)	-6.3e-05

For every item in the list below, what is its measured NADPH fluorescence slope?
1. O=C(CN1C(=O)c2ccccc2S1(=O)=O)NCc1ccccn1
2. CC(C)CCNC(=O)Cn1c(NCCC(C)C)nc2c1c(=O)n(C)c(=O)n2C

1: 4e-06; 2: 8.9e-06

---

What fluorescence slope was measured for each of the following?
# TARGET OF ASSAY: Voltage-gated potassium channel subunit beta-2 (Rattus norvegicus)
# TEST PROTOCOL: KvBeta enzyme negative modulators, primary screen, biochemical, NADPH fluorescence (AID 622);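 further: slope of raw intensity against log time taken from 70 to 1610 s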
# CONDITION: recombinant KvBeta, 4-cyanobenzaldehyde reduction, at 10 µM, stronger effect = higher value
Give bare numbers.

COMPOUND	TARGET OF ASSAY	MEASURED VALUE
O=C(NCc1ccccc1)C1CCCN1S(=O)(=O)c1cccc2cccnc12 (stereo not drawn)	Voltage-gated potassium channel subunit beta-2 (Rattus norvegicus)	-0.561
CCCCCOC(=O)Cc1c(C)nc(-c2ccccc2)[nH]c1=O	Voltage-gated potassium channel subunit beta-2 (Rattus norvegicus)	-0.474
Cc1cc(Cl)c(S(=O)(=O)Nc2ccc3c(c2)OCCO3)cc1OCC(N)=O	Voltage-gated potassium channel subunit beta-2 (Rattus norvegicus)	-0.516

For every item in the list below, what is its measured fluorescence slope?
1. COc1ccc(C2C=C(c3ccc(C)cc3)Nc3ncnn32)cc1 (stereo not drawn)
2. COc1ccc(NC(=O)CSc2nnc(Cc3cccn3C)n2-c2ccc(F)cc2)cc1
3. O=C(O)CC(NC(=O)c1ccccc1NC(=O)c1ccccc1)C(=O)O (stereo not drawn)
4. CCCN1CCN(C(=O)Cn2c(=O)oc3cc(S(=O)(=O)NCc4ccccc4)ccc32)CC1
5. CCOc1ccc(C2=Nn3c(nnc3-c3ccccc3OC)SC2)cc1
6. COc1ccc(C2CC(c3cccs3)n3nc(N)nc3N2)cc1 (stereo not drawn)
7. CCOC(=O)C(NC(C)=O)(Nc1ccc(S(=O)(=O)Nc2nccs2)cc1)C(F)(F)F (stereo not drawn)

1. -0.0165
2. -0.577
3. -0.403
4. -0.51
5. -0.472
6. -0.533
7. -0.645

For every item in the list below, what is its measured fluorescence slope?
1. COCCOC(=O)c1c(C)oc2ccc(OC(=O)COc3c(F)c(F)c(F)c(F)c3F)cc12
2. CC(NC(=O)c1cc2c(=O)n(C)c3ccccc3c2n1C)c1ccc2c(c1)OCCO2 (stereo not drawn)
3. CCCCOc1ccc(C(=O)N2CCCC2C(=O)O)cc1 (stereo not drawn)

1. -0.461
2. -0.623
3. -0.458
